Just for reference, PubChem BioAssay (NCI) is where these values come from.

Tested on: T-47D breast
measurement.protocol: NCI tumour cell line growth inhibition, 48 h
measurement.label: TGI (µM)
Respond numerically; units are µM and should not be typed.

INSERT INTO assay_data (molecule, value_observed) VALUES
  ('COc1ccc2c(c1)c(-c1nc(-c3cn(C)c4ncccc34)cs1)cn2CCCN1CCCCC1', 4.28),
  ('Cc1c(C(=O)N/N=C/c2ccc(Cl)cc2)nnn1-c1ccnc2c(C(F)(F)F)cccc12', 28.9),
  ('O=C1c2c(c3c4ccccc4n(CCCCCCBr)c3c3[nH]c4ccccc4c23)C(=O)N1O', 7.44),
  ('CCN(CC)CCc1c2c(nc3ccccc13)C(=O)c1cccnc1C2=O', 5.31),
  ('CC(O[Si](c1ccccc1)(c1ccccc1)C(C)(C)C)[C@H](NC(=O)OC(C)(C)C)C(=O)O[Si](c1ccccc1)(c1ccccc1)C(C)(C)C (some centres undefined)', 25.7);

Consider now this further molecule.
Ask | Name the recorded TGI for `Nc1cc(CO)cc(Nc2nc3ccc(Cl)cc3c3[nH]c4ccccc4c23)c1` .
Reply | 20.8
